Literature survey of IC50 (system: IRAK4 (Homo sapiens (Human), UniProt Q9NWZ3)).

IC50 for IRAK4 (Homo sapiens (Human), UniProt Q9NWZ3) with input "O=C(Nc1nc(CCCCCN2CCSCC2)cn1-c1ccccc1)c1cccc(-c2cn[nH]c2)c1" equals < 50 nM

IC50 for IRAK4 (Homo sapiens (Human), UniProt Q9NWZ3) with input "O=C1Nc2nc3ccccc3n2Cc2cncc(c2)-c2ccc(=O)n(n2)Cc2cccc1c2" equals < 100 nM

IC50 for IRAK4 (Homo sapiens (Human), UniProt Q9NWZ3) with input "COC(=O)CCc1cn(-c2ccccc2)c(NC(=O)c2cccc(-c3cn[nH]c3)c2)n1" equals < 50 nM

IC50 for IRAK4 (Homo sapiens (Human), UniProt Q9NWZ3) with input "CCNC(=O)c1csc(Nc2nc(NC3CCOCC3)c3c(ccn3-c3cnn(C)c3)n2)c1" equals ≤ 100 nM

IC50 for IRAK4 (Homo sapiens (Human), UniProt Q9NWZ3) with input Cc1nnc(-c2cnc(-c3cccc(-c4cnn(C)c4)c3)nc2NC2CCC(NS(=O)(=O)C3CC3)CC2)s1 (stereo not drawn) equals < 100 nM

IC50 for IRAK4 (Homo sapiens (Human), UniProt Q9NWZ3) with input "CC(=O)Nc1ccc(C(=O)Nc2sc(Nc3ccccc3)nc2C(N)=O)cc1" equals > 300 nM

---

Literature survey of pIC50 (system: IRAK4 (Homo sapiens (Human), UniProt Q9NWZ3)).
pIC50: −log10 of the molar value.

pIC50 for IRAK4 (Homo sapiens (Human), UniProt Q9NWZ3) with input "CC[C@H](N)c1cccc(-c2ccc3cnn(-c4cccc(CO)n4)c3c2)n1" equals > 7.00

pIC50 for IRAK4 (Homo sapiens (Human), UniProt Q9NWZ3) with input CN(C)[C@H]1CC[C@H](Oc2ncnc3sc4c(c23)CC(CC(N)=O)OC4)CC1 (stereo partly shown) equals > 5.30

pIC50 for IRAK4 (Homo sapiens (Human), UniProt Q9NWZ3) with input "O=S(=O)(CCO)N1CCc2sc3ncnc(N[C@H]4CC[C@H](N5CCOCC5)CC4)c3c2C1" equals > 5.30

pIC50 for IRAK4 (Homo sapiens (Human), UniProt Q9NWZ3) with input "COc1cc2nc(C3CCOCC3)cn2cc1NC(=O)c1cccn(C2CC2)c1=O" equals 8.00 to 8.30

---

Literature survey of log10 IC50 (system: IRAK4 (Homo sapiens (Human))).
Heads up: the numbers are on a log10 scale; they represent IC50 in nM.

log10 IC50 for IRAK4 (Homo sapiens (Human)) with input "CC(C)Nc1cc(Nc2ccc3ncsc3c2)ncc1C(=O)NCC[C@@H](C)NC(=O)CCCCC(C)(C)O" equals 0.53

log10 IC50 for IRAK4 (Homo sapiens (Human)) with input "CCN(C1CCC2(CC1)CCN(C(=O)c1ccc(Cl)c(N3CCC(=O)NC3=O)c1)CC2)[C@H]1CC[C@H](n2cc3cc(NC(=O)c4cccc(C(F)(F)F)n4)c(OC)cc3n2)CC1" equals 0.81

log10 IC50 for IRAK4 (Homo sapiens (Human)) with input CC12CC(c3cn4cc(C(=O)Nc5cccn([C@@H]6C[C@@H]6F)c5=O)c(OC5CCC5)cc4n3)(CO1)C2 (racemic) equals -0.22

log10 IC50 for IRAK4 (Homo sapiens (Human)) with input "CC(F)(F)Cn1ccc(Nc2cc(-c3cnc4cc(C#N)cnn34)ncc2C(=O)NC[C@@H](F)C(C)(C)O)n1" equals 0.48

log10 IC50 for IRAK4 (Homo sapiens (Human)) with input O=C(O)C1CCC(c2ccc3ncnc(N[C@H]4CC[C@H](N5CCOCC5)CC4)c3c2)CC1 (stereo partly drawn) equals 1.99

log10 IC50 for IRAK4 (Homo sapiens (Human)) with input "CC(C)(O)[C@H](F)CNC(=O)c1cnc(Nc2ccc3nccnc3c2)cc1NC1CC1" equals 0.90

---

Literature survey of pIC50 (system: IRAK4 (Homo sapiens (Human), UniProt Q9NWZ3)).
FYI, pIC50 means -log10 of a concentration in mol per litre.

pIC50 for IRAK4 (Homo sapiens (Human), UniProt Q9NWZ3) with input "CC(C)Nc1cc(-c2cnc3cc(C#N)cnn23)ncc1-c1cnn(CC(C)(C)O)c1" equals 6.76

pIC50 for IRAK4 (Homo sapiens (Human), UniProt Q9NWZ3) with input "CC(C)Nc1c(C(=O)NC[C@@H](F)C(C)(C)O)cnc2ccc(-c3cccc(C#N)c3)cc12" equals 6.84

pIC50 for IRAK4 (Homo sapiens (Human), UniProt Q9NWZ3) with input "C#Cc1c[nH]c(=O)c2cc3ccnc(OC[C@@H]4CCC(=O)N4)c3cc12" equals 7.84

pIC50 for IRAK4 (Homo sapiens (Human), UniProt Q9NWZ3) with input "CC(C)(O)[C@H](F)CNC(=O)c1cnc(Nc2ccc3ncsc3c2)cc1NCCc1ccccc1" equals 8.05

pIC50 for IRAK4 (Homo sapiens (Human), UniProt Q9NWZ3) with input "CC(C)Nc1c(C(=O)NCCC2CC2)cnc2ccc(Nc3cncc(F)c3)nc12" equals 6.05

---

Literature survey of pIC50 (system: IRAK4 (Homo sapiens (Human), UniProt Q9NWZ3)).
pIC50: −log10 of the molar value.

pIC50 for IRAK4 (Homo sapiens (Human), UniProt Q9NWZ3) with input "CC[C@H](O)C[C@H]1CCc2sc3ncnc(O[C@H]4CC[C@](CC)(N(C)C)CC4)c3c21" equals 4.70 to 5.30

pIC50 for IRAK4 (Homo sapiens (Human), UniProt Q9NWZ3) with input "CCCc1noc(-c2cnc(Nc3ccc4c(c3)C(C)(C)OC4=O)nc2N[C@H](CO)c2ccccc2)n1" equals 6.00 to 6.60

pIC50 for IRAK4 (Homo sapiens (Human), UniProt Q9NWZ3) with input "NC(=O)C[C@H]1CCc2sc3ncnc(O[C@H]4CC[C@H](N5CCNC(=O)C5)CC4)c3c21" equals 4.30 to 4.70

pIC50 for IRAK4 (Homo sapiens (Human), UniProt Q9NWZ3) with input "CN(C)[C@H]1CC[C@H](Nc2ncnc3sc4c(c23)C(C)(C)CC4)CC1" equals 4.70 to 5.30

pIC50 for IRAK4 (Homo sapiens (Human), UniProt Q9NWZ3) with input "CC1(C)OC(=O)c2ccc(Nc3ncc(-c4nnc(-c5cccnn5)o4)c(N[C@H](CO)c4ccccc4)n3)cc21" equals 6.60 to 7.30

pIC50 for IRAK4 (Homo sapiens (Human), UniProt Q9NWZ3) with input "Fc1c[nH]c2ncnc(O[C@H]3CC[C@H](N4CCOCC4)CC3)c12" equals 5.00 to 6.00

---

Literature survey of IC50 (system: UniProt:Q9NWZ3).

IC50 for UniProt:Q9NWZ3 with input "Cc1ccc(Nc2nc(N[C@H]3CC[C@H](N4CCOCC4)CC3)c3c4c(sc3n2)CCC4)cc1" equals 20000 to 50000 nM

IC50 for UniProt:Q9NWZ3 with input "Cc1cc(Nc2nc(OC3CCOCC3)c3c(ccn3-c3ccn(C)c3)n2)sn1" equals 100 to 1000 nM

IC50 for UniProt:Q9NWZ3 with input "O=C1OCc2cc(Nc3ncc(-c4ncccn4)c(N[C@H](CO)c4ccccc4)n3)ccc21" equals 250 to 1000 nM

IC50 for UniProt:Q9NWZ3 with input "Cn1cc(-c2cccc(C(=O)Nc3nc(CCCC(=O)N4CCCCC4)cn3-c3ccccc3)c2)cn1" equals < 50 nM

IC50 for UniProt:Q9NWZ3 with input "C[C@H](O)C[C@H]1CCc2sc3ncnc(O[C@H]4CC[C@H](N(C)C)CC4)c3c21" equals < 5000 nM

IC50 for UniProt:Q9NWZ3 with input "COc1cc2nn(C3CCCCC3)cc2cc1NC(=O)c1cccc(C)[n+]1[O-]" equals 5.9 nM

IC50 for UniProt:Q9NWZ3 with input "Cn1cc(-c2cccc(C(=O)Nc3nc(CCCCCC(=O)N4CCCCC4)cn3-c3ccccc3)c2)cn1" equals < 50 nM

IC50 for UniProt:Q9NWZ3 with input O=C1CCC(N2Cc3cc(OCCOCCN4CCN(Cc5ccc6c(c5)nc(NC(=O)c5cccc(C(F)(F)F)c5)n6[C@H]5CC[C@@H](CO)CC5)CC4)ccc3C2=O)C(=O)N1 (stereo partly drawn) equals < 30 nM

IC50 for UniProt:Q9NWZ3 with input "Cc1cc(Nc2nc(NC(C)C)c3c(ccn3-c3cccc4c3cnn4C)n2)sn1" equals 1000 to 10000 nM

IC50 for UniProt:Q9NWZ3 with input "CCNC(=O)c1csc(Nc2nc(O[C@@H]3CCOC3)c3c(ccn3-c3cnn(C)c3)n2)c1" equals ≤ 100 nM

IC50 for UniProt:Q9NWZ3 with input CC(C)(O)[C@H](F)CNC(=O)c1cnc(Nc2nc3ccnn3cc2F)cc1NC1CCCCC1(F)F (stereo partly drawn) equals 15.2 nM

IC50 for UniProt:Q9NWZ3 with input "CC(C)(O)[C@H](F)CNC(=O)c1cnc(-c2cnc3cccnn23)cc1NC1COC1" equals 13 nM
